Just for reference, patent US20200246316A1 is where these values come from.

experiment: Rat 28-day GLP repeat dose PO study (toxicokinetics); type: in vivo; settings: female, rat, in vivo, po, 2000 mg/kg, Day 14, F, 2000 mg/kg PO; read-out: tmax
Where a name gives a salt, the structure may show the parent alone.
property-name: Tmax (h)
Enter your answer as a number in h; do not include the unit.

Requested read-out: Tmax. Entry: CC1(C)SC(Nc2ccccc2O)=N[C@@H]1C(=O)O [Compound 1, mono-hydrochloride]
1

---

Test: Dog 7-day repeat dose PO study
Format: in vivo
Conditions: female, plasma, 350 mg/kg, Day 7, 350 mg/kg PO, F, N = 1
Protocol: The objective was to develop a preliminary toxicity profile of Compound 1 following daily oral (gavage) administration for 7 days to male and female dogs to support dose selection for a 28-day toxicity study in dogs. Doses were selected based on the results of the MTD phase. Dose levels were 0 (Vehicle Control), 200, 350 and 400 mg/kg (1 dog/sex/group). The vehicle was 0.5% aqueous HPMC. The animals used in this study were returned to the holding colony
Where a name gives a salt, the structure may show the parent alone.
property-name: Cmax (µg/mL)
Enter your answer as a number in µg/mL; do not include the unit.

Requested read-out: Cmax. Entry: CC1(C)SC(Nc2ccccc2O)=N[C@@H]1C(=O)O [Compound 1, mono-hydrochloride]
207

---

test: Rat brain distribution and pharmacokinetic study; type: in vivo; details: rat, in vivo; 30 mg/kg oral dose
Counter-ions that a name gives are not always drawn.
property-name: bioavailability (%)
Enter your answer as a number in %; do not include the unit.

Requested read-out: bioavailability. Entry: CC1(C)SC(Nc2ccccc2O)=N[C@@H]1C(=O)O [Compound 1, mono-hydrochloride]
111

---

assay: Rat 28-day GLP repeat dose PO study (toxicokinetics); assay type: in vivo; conditions: male, rat, in vivo, po, 1000 mg/kg, Day 1, M, 1000 mg/kg PO
Where a name gives a salt, the structure may show the parent alone.
property-name: AUC
Be sure to follow the number with its unit.

Requested read-out: AUC. Entry: CC1(C)SC(Nc2ccccc2O)=N[C@@H]1C(=O)O [Compound 1, mono-hydrochloride]
456 µg·h/mL

---

experiment: Rat 28-day GLP repeat dose PO study (toxicokinetics); type: in vivo; conditions: female, rat, in vivo, po, 500 mg/kg, Day 14, F, 500 mg/kg PO; read-out: CL/F (CLss/F) (converted)
Where a name gives a salt, the structure may show the parent alone.
property-name: CL/F (mL/min/kg)
Enter your answer as a number in mL/min/kg; do not include the unit.

Requested read-out: CL/F. Entry: CC1(C)SC(Nc2ccccc2O)=N[C@@H]1C(=O)O [Compound 1, mono-hydrochloride]
37.5

---

Molecular target: OATP1B3 (Homo sapiens)
Construct: expressed in transfected cells; host or cells: HEK293 cells
Sequence (Q9NPD5 1-702): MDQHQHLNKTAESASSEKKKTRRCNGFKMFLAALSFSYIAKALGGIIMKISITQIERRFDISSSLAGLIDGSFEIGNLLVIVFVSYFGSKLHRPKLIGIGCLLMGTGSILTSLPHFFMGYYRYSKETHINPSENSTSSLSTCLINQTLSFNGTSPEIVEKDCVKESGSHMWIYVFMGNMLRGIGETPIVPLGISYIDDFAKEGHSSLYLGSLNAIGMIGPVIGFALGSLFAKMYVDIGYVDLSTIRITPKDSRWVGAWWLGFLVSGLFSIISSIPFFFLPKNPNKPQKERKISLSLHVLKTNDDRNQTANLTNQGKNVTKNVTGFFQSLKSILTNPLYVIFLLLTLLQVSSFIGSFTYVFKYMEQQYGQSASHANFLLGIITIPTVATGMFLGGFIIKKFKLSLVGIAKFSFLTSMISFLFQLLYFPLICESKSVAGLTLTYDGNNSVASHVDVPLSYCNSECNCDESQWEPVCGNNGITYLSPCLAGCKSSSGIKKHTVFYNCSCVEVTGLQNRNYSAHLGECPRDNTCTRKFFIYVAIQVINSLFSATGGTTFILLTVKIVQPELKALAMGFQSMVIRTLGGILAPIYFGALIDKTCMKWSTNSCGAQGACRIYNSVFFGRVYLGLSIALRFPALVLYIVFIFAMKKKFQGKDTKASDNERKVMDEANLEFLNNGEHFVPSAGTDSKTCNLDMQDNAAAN
Assay: Inhibition of uptake (SLC) transporters
Format: in vitro ADME
Settings: HEK293 cells, probe [3H]-estradiol-17β-glucuronide (0.05 μM), 0.3-600 μM tested
Structures can show the parent of a compound that is named as a salt.
property-name: IC50

Requested read-out: IC50. Entry: CC1(C)SC(Nc2ccccc2O)=N[C@@H]1C(=O)O [Compound 1, mono-hydrochloride]
> 600 µM
